# experiment: Inhibition of BRD4 in mouse MPNST cells assessed as reduction in cell viability incubated for 72 hrs by SRB assay

query smiles | IC50
Cc1sc2c(c1C)C(c1ccc(Cl)cc1)=N[C@@H](CC(=O)OC(C)(C)C)c1nnc(C)n1-2 | < 0.4 µM

---

# experiment: Inhibition of BRD4 in mouse primary skin-derived precursors (Nf1-/-, P53-/-) assessed as reduction in cell viability incubated for 72 hrs by SRB assay
pIC50: −log10 of the molar value.
measure name: pIC50

query smiles | result
Cc1sc2c(c1C)C(c1ccc(Cl)cc1)=N[C@@H](CC(=O)OC(C)(C)C)c1nnc(C)n1-2 | > 6.40

Source listed as BindingDB's records for PubMed 28813519.
